molecular target: UniProtKB P78329; experiment: Inhibition test against 20-HETE producing enzyme CYP4F2 (luciferine derivative, luminescence); format: biochemical; conditions: E. coli membrane fraction expressing human CYP4F2, 2.5 μM luciferine derivative, room temperature 60 minutes
Sequence (P78329 5-520): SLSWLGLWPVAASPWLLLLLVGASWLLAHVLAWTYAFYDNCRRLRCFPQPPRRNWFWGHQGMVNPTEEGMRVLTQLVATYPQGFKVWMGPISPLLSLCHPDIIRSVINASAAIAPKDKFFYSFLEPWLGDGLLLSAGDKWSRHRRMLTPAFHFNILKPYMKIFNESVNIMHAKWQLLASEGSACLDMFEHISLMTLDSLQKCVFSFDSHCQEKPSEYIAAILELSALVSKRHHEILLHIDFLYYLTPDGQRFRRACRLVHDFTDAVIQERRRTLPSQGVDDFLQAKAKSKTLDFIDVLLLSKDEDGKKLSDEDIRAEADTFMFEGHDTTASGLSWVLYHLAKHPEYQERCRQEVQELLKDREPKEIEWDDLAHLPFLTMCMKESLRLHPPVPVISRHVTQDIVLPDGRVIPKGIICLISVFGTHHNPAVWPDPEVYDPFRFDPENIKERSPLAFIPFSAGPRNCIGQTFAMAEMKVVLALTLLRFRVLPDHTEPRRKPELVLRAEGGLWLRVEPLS
The label t is reserved for IC50 strictly under 0.3 µM; f covers values equal to or above it.

>  <molecule>
O=C(O)[C@]12CC3C[C@H](C1)[C@H](COc1ccc(-c4ccn[nH]4)nc1)[C@@H](C3)C2 [Example 2-1]

>  <measured_on>
UniProtKB P78329

>  <assigned_class>
f

$$$$
>  <molecule>
O=C(O)CCCc1ccc(CCCOc2ccc(-c3ccn[nH]3)nc2)cc1 [Example 30-5]

>  <measured_on>
UniProtKB P78329

>  <assigned_class>
t

$$$$
>  <molecule>
NC(=O)c1cc(COc2ccc(-c3n[nH]cc3Cl)nc2)ccn1 [Example 53-2]

>  <measured_on>
UniProtKB P78329

>  <assigned_class>
t

$$$$
>  <molecule>
CC(C)(CCCCOc1ccc(-c2ccn[nH]2)nc1)C(=O)O [Example 1-59]

>  <measured_on>
UniProtKB P78329

>  <assigned_class>
f

$$$$
>  <molecule>
CS(=O)(=O)N[C@H]1CC[C@@H](Oc2ccc(-c3ccn[nH]3)nc2)CC1 [Example 57-2]

>  <measured_on>
UniProtKB P78329

>  <assigned_class>
f

$$$$
>  <molecule>
O=C(O)Cc1cccc(OCCOc2ccc(-c3ccn[nH]3)nc2)c1 [Example 22-19]

>  <measured_on>
UniProtKB P78329

>  <assigned_class>
f

$$$$
>  <molecule>
Cc1cc(COc2ccc(-c3ccn[nH]3)nc2)ccc1C(=O)O [Example 25-1]

>  <measured_on>
UniProtKB P78329

>  <assigned_class>
f

$$$$
>  <molecule>
CC(C)(C(=O)O)n1cc(CCCCOc2ccc(-c3ccn[nH]3)nc2)cn1 [Example 8-13]

>  <measured_on>
UniProtKB P78329

>  <assigned_class>
f

$$$$
>  <molecule>
CC(=O)N1CCC(C(=O)O)(c2cccc(COc3ccc(-c4ccn[nH]4)nc3)c2)CC1 [Example 33-1]

>  <measured_on>
UniProtKB P78329

>  <assigned_class>
f

$$$$
>  <molecule>
O=C(O)c1cccc(CCCCOc2ccc(-c3ccn[nH]3)nc2)c1 [Example 1-19]

>  <measured_on>
UniProtKB P78329

>  <assigned_class>
t

$$$$
>  <molecule>
CC(C)(CCOc1ccc(-c2ccn[nH]2)nc1)CCC(=O)O [Example 7-1]

>  <measured_on>
UniProtKB P78329

>  <assigned_class>
f

$$$$
>  <molecule>
O=C(O)Cn1cc(CCCCOc2ccc(-c3ccn[nH]3)nc2)cn1 [Example 8-12]

>  <measured_on>
UniProtKB P78329

>  <assigned_class>
f

$$$$
>  <molecule>
O=C(O)COc1cccc(COc2ccc(-c3ccn[nH]3)nc2)c1 [Example 10-2]

>  <measured_on>
UniProtKB P78329

>  <assigned_class>
f

$$$$
>  <molecule>
O=C(O)c1ccc(CCCCOc2ccc(-c3ccn[nH]3)nc2)cc1 [Example 1-18]

>  <measured_on>
UniProtKB P78329

>  <assigned_class>
f

$$$$
>  <molecule>
CC(C)(CCc1cccc(COc2ccc(-c3ccn[nH]3)nc2)n1)C(=O)O [Example 1-39]

>  <measured_on>
UniProtKB P78329

>  <assigned_class>
f

$$$$
>  <molecule>
O=C(O)Cc1cccc(COc2ccc(-c3cn[nH]c3)nc2)c1 [Example 38-2]

>  <measured_on>
UniProtKB P78329

>  <assigned_class>
f

$$$$
>  <molecule>
CC(C)(CC(=O)N1CCC(COc2ccc(-c3ccn[nH]3)nc2)CC1)C(=O)O [Example 46-1]

>  <measured_on>
UniProtKB P78329

>  <assigned_class>
f

$$$$
>  <molecule>
CN(CCC(C)(C)C(=O)O)S(=O)(=O)c1cccc(COc2ccc(-c3ccn[nH]3)nc2)c1 [Example 21-5]

>  <measured_on>
UniProtKB P78329

>  <assigned_class>
f

$$$$
>  <molecule>
O=C(O)C1(OCCCCCCCCOc2ccc(-c3ccn[nH]3)nc2)CCOCC1 [Example 68-1]

>  <measured_on>
UniProtKB P78329

>  <assigned_class>
t

$$$$
>  <molecule>
O=S(=O)(CCO)c1cccc(COc2ccc(-c3ccn[nH]3)nc2)c1 [Example 3-11]

>  <measured_on>
UniProtKB P78329

>  <assigned_class>
t

$$$$
>  <molecule>
CC(C)(CCc1cc(COc2ccc(-c3ccn[nH]3)nc2)ccn1)C(=O)O [Example 1-38]

>  <measured_on>
UniProtKB P78329

>  <assigned_class>
f

$$$$
>  <molecule>
CC(C)(C(=O)O)c1cccc(COc2ccc(-c3ccn[nH]3)nc2)c1 [Example 24-2]

>  <measured_on>
UniProtKB P78329

>  <assigned_class>
f

$$$$
>  <molecule>
O=C(O)[C@H]1CC[C@H](c2cccc(COc3ccc(-c4ccn[nH]4)nc3)c2)CC1 [Example 8-2]

>  <measured_on>
UniProtKB P78329

>  <assigned_class>
f

$$$$
>  <molecule>
OC(c1ccc(COc2ccc(-c3ccn[nH]3)nc2)cc1)C(F)(F)F (centres unmarked) [Example 59-3]

>  <measured_on>
UniProtKB P78329

>  <assigned_class>
t

$$$$
>  <molecule>
OC(c1ccc(COc2ccc(-c3ccn[nH]3)nc2)cc1)C(F)F (centres unmarked) [Example 59-2]

>  <measured_on>
UniProtKB P78329

>  <assigned_class>
t

$$$$
>  <molecule>
CNC(=O)Cc1cccc(COc2ccc(-c3ccn[nH]3)nc2)c1 [Example 42-4]

>  <measured_on>
UniProtKB P78329

>  <assigned_class>
t

$$$$
>  <molecule>
CC(C)(C(=O)O)n1cc(CCCCOc2ccc(-c3ccn[nH]3)nc2)nn1 [Example 35-3]

>  <measured_on>
UniProtKB P78329

>  <assigned_class>
f

$$$$
>  <molecule>
O=C(O)CCCc1cccc(CCCOc2ccc(-c3ccn[nH]3)nc2)c1 [Example 30-4]

>  <measured_on>
UniProtKB P78329

>  <assigned_class>
f

$$$$
>  <molecule>
O=C(O)c1ncc(CCCCOc2ccc(-c3ccn[nH]3)nc2)cn1 [Example 29-3]

>  <measured_on>
UniProtKB P78329

>  <assigned_class>
t

$$$$
>  <molecule>
O=C(O)C1COc2ccc(COc3ccc(-c4ccn[nH]4)nc3)cc2C1 (centres unmarked) [Example 1-68]

>  <measured_on>
UniProtKB P78329

>  <assigned_class>
f

$$$$
>  <molecule>
CNC(=O)c1cccc(COc2ccc(-c3ccn[nH]3)nc2)c1 [Example 42-1]

>  <measured_on>
UniProtKB P78329

>  <assigned_class>
t

$$$$
>  <molecule>
CC(=O)N1CCN(CCOc2ccc(-c3ccn[nH]3)cc2)CC1 [Compound A, reference compound]

>  <measured_on>
UniProtKB P78329

>  <assigned_class>
f

$$$$
>  <molecule>
O=C(O)CCCc1cccc(CCOc2ccc(-c3ccn[nH]3)nc2)c1 [Example 4-1]

>  <measured_on>
UniProtKB P78329

>  <assigned_class>
f

$$$$
>  <molecule>
O=C(O)c1cccc(S(=O)(=O)N2CCC[C@@H](COc3ccc(-c4ccn[nH]4)nc3)C2)c1 [Example 1-37]

>  <measured_on>
UniProtKB P78329

>  <assigned_class>
t

$$$$
